B1: DYRK1B (parent)
chain: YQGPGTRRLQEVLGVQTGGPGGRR

Variants of: B1
Assay: protein stability index of a GFP-peptide fusion (GPS, HEK-293T) (PSI 1-6); higher = more stable;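 further: lentivirally expressed fusions sorted by FACS into six bins by GFP to DsRed ratio, PSI derived from sequencing read proportions per bin multiplied by bin number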
Details: c terminus: a fixed tail appended
Entries and their measured protein stability index follow.
Outcome measure: protein stability index

T17K : 3.24
E11M : 2.81
R7T : 3.54
V15Y : 2.92
T6P : 3.04
R24G : 3.4
Q16R : 3.09
P4Q : 2.88
G19Y : 2.9
G3P : 3.39
G22P : 3.48
L13G : 3.9
G3Y : 2.48
T17W : 2.49
G14K : 2.9
G18C : 3.07
P20D : 3.51
G5T : 3.22
P20H : 2.81
V15I : 2.07
P20A : 3.22
G5Y : 2.34
